conditions: in n-butanol, 313.15 K

Smiles	solubility (mole fraction)
Cc1c(N)cccc1C(=O)O	0.00659

---

settings: in n-butanol, 293.15 K

Smiles	solubility (mole fraction)
Cc1c(N)cccc1C(=O)O	0.00269

---

settings: in n-propyl acetate, 328.15 K
Measurement type: solubility (mole fraction)

Smiles	Numeric result
Cc1c(N)cccc1C(=O)O	0.0047

---

details: in isobutanol, 313.15 K
Measurement type: solubility (mole fraction)

Smiles	Result
Cc1c(N)cccc1C(=O)O	0.00427

---

details: in isobutanol, 298.15 K
Measurement type: solubility (mole fraction)

Smiles	Numeric result
Cc1c(N)cccc1C(=O)O	0.00191

---

details: in acetonitrile, 288.15 K

Smiles	solubility (mole fraction)
Cc1c(N)cccc1C(=O)O	0.0004

---

details: in ethanol, 303.15 K
Measurement type: solubility (mole fraction)

Smiles	Measurement type	Numeric result
Cc1c(N)cccc1C(=O)O	solubility (mole fraction)	0.00628

---

details: in water, 298.15 K
Measurement type: solubility (mole fraction)

Smiles	Numeric result
Cc1c(N)cccc1C(=O)O	0.00062

---

details: in ethanol, 308.15 K
Measurement type: solubility (mole fraction)

Smiles	Numeric result
Cc1c(N)cccc1C(=O)O	0.00749

---

settings: in methanol, 313.15 K

Smiles	solubility (mole fraction)
Cc1c(N)cccc1C(=O)O	0.0115

---

details: in water, 303.15 K

Smiles	solubility (mole fraction)
Cc1c(N)cccc1C(=O)O	0.000669

---

conditions: in n-propyl acetate, 323.15 K

Smiles	solubility (mole fraction)
Cc1c(N)cccc1C(=O)O	0.00368

---

details: in sec-butanol, 303.15 K
Measurement type: solubility (mole fraction)

Smiles	Measurement type	Result
Cc1c(N)cccc1C(=O)O	solubility (mole fraction)	0.00388

---

details: in water, 293.15 K

Smiles	solubility (mole fraction)
Cc1c(N)cccc1C(=O)O	0.000588

---

conditions: in n-butanol, 323.15 K
Measurement type: solubility (mole fraction)

Smiles	Measurement type	Result
Cc1c(N)cccc1C(=O)O	solubility (mole fraction)	0.00962

---

settings: in sec-butanol, 318.15 K

Smiles	solubility (mole fraction)
Cc1c(N)cccc1C(=O)O	0.00858

---

details: in ethyl acetate, 293.15 K
Measurement type: solubility (mole fraction)

Smiles	Numeric result
Cc1c(N)cccc1C(=O)O	0.00107

---

details: in isopropanol, 318.15 K

Smiles	solubility (mole fraction)
Cc1c(N)cccc1C(=O)O	0.0079

---

conditions: in n-propyl acetate, 288.15 K

Smiles	solubility (mole fraction)
Cc1c(N)cccc1C(=O)O	0.000796

---

conditions: in ethyl acetate, 328.15 K
Measurement type: solubility (mole fraction)

Smiles	Measurement type	Numeric result
Cc1c(N)cccc1C(=O)O	solubility (mole fraction)	0.00524

---

conditions: in acetonitrile, 313.15 K
Measurement type: solubility (mole fraction)

Smiles	Measurement type	Numeric result
Cc1c(N)cccc1C(=O)O	solubility (mole fraction)	0.0017

---

details: in methanol, 328.15 K

Smiles	solubility (mole fraction)
Cc1c(N)cccc1C(=O)O	0.0178

---

details: in water, 323.15 K
Measurement type: solubility (mole fraction)

Smiles	Measurement type	Result
Cc1c(N)cccc1C(=O)O	solubility (mole fraction)	0.00098

---

details: in isopropanol, 303.15 K

Smiles	solubility (mole fraction)
Cc1c(N)cccc1C(=O)O	0.00386

---

conditions: in isobutanol, 293.15 K
Measurement type: solubility (mole fraction)

Smiles	Numeric result
Cc1c(N)cccc1C(=O)O	0.00132
